Cited source: patent US9168259B2

Biological target: KCNQ2/3 channels (Homo sapiens, UniProt O43525+O43526)
Construct: expressed in transfected cells
Sequence (O43526 whole entry): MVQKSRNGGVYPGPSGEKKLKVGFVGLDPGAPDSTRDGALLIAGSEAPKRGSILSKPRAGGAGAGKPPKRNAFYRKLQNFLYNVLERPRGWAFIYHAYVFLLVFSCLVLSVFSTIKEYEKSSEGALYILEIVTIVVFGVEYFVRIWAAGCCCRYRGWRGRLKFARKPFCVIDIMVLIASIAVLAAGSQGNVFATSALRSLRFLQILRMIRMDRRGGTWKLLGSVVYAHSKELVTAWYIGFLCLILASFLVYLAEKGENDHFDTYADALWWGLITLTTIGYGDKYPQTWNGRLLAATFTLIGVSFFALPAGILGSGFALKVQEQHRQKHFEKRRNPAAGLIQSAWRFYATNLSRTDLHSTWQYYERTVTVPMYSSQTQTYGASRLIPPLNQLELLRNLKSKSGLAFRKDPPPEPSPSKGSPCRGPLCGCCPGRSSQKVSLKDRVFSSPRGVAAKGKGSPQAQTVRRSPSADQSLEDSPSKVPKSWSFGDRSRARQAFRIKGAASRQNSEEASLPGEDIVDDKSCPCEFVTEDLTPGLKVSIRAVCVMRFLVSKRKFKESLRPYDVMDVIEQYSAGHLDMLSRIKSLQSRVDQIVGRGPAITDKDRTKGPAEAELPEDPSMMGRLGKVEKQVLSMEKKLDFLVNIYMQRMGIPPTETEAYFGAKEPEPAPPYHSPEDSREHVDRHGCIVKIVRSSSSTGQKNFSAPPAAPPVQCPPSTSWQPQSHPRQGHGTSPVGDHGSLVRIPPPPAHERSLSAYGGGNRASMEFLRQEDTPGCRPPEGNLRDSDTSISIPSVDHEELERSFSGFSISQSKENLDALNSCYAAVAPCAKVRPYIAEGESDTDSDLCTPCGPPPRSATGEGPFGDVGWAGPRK
Sequence (O43525 whole entry): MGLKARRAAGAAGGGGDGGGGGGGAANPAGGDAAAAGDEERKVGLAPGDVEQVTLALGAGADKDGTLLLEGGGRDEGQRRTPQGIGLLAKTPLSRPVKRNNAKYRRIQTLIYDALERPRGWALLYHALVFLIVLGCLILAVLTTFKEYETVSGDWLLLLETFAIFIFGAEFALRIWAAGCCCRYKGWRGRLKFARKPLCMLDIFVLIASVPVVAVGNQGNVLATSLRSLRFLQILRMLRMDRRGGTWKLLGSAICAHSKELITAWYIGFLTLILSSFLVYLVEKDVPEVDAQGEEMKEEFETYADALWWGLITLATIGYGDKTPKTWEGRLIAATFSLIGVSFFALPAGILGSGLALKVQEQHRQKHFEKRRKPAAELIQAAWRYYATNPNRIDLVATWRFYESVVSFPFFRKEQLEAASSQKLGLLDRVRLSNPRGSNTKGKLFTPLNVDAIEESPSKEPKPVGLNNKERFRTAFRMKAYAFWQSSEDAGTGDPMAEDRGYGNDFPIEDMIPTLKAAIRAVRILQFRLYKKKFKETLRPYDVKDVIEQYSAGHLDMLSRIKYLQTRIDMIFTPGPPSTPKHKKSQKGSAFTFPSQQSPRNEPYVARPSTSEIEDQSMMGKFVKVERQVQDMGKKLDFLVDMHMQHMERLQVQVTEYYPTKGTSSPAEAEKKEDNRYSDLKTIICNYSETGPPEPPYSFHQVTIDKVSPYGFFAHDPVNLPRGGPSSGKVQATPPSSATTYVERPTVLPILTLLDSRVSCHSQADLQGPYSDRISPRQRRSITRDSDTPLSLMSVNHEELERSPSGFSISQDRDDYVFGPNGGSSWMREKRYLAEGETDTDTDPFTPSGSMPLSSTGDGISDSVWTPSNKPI
Assay: Fluorescence assay using a voltage sensitive dye (fluorimetry)
Format: cell-based
Details: CHO-K1, plateau effect relative to saturated retigabine (50 μM) = 100%; CHO-K1 cells expressing KCNQ2/3; negative values = antagonistic; read-out: Fluorimetry % efficacy (retigabine = 100%)
Entries annotated with measured Emax

# smilesInput, Emax (%)
records = [
    ("CSc1nc(N2CCOCC2)cc(C)c1C(=O)NCc1cc(F)cc(F)c1", 167),
    ("CCSc1nc(N2CCOCC2)cc(C)c1C(=O)NCc1cccc(OC(F)(F)F)c1", 148),
    ("Cc1cc(N2CCOCC2)nc(N2CCOCC2)c1C(=O)NCc1cccc(F)c1", 210),
    ("CCNc1nc(N2CCOCC2)cc(C)c1C(=O)NCc1cccc(F)c1", 140),
    ("Cc1cc(N2CCOCC2)nc(C2CC2)c1C(=O)NCc1ccc(Cl)cc1", 162),
    ("COc1nc(N2CCOCC2)cc(C)c1C(=O)NCc1ccc(F)cc1", 143),
    ("CCSc1nc(N2CCC(C)CC2)cc(C)c1C(=O)NCc1cccc(F)c1", 175),
    ("CCSc1nc(N2CCOCC2)cc(C)c1C(=O)NCc1cc(C(F)(F)F)ccc1F", 62),
    ("CCSc1nc(N2CCOCC2)cc(C)c1C(=O)NCC#CC(C)(C)C", 253),
]

====

Entries annotated with measured pEC50
Molecular target: KCNQ2/3 channels (Homo sapiens, UniProt O43525+O43526)
Construct: expressed in transfected cells
Test: Fluorescence assay using a voltage sensitive dye (fluorimetry)
Assay type: cell-based
Conditions: CHO-K1 cells expressing KCNQ2/3; IC50 where % efficacy is negative; read-out: Fluorimetry EC50/IC50
pEC50: −log10 of the molar value.

# smilesInput, targetEntity, pEC50
rows = [
    ("CCSc1nc(N2CCOCC2)cc(C)c1C(=O)NCc1cccc(F)c1F", "KCNQ2/3 channels (Homo sapiens, UniProt O43525+O43526)", 6.93),
    ("CCSc1nc(N2CCOCC2)cc(C)c1C(=O)NCC(=O)CC(C)(C)C", "KCNQ2/3 channels (Homo sapiens, UniProt O43525+O43526)", 6.08),
    ("CCSc1nc(N2CCO[C@H](COC)C2)cc(C)c1C(=O)NCc1cccc(F)c1", "KCNQ2/3 channels (Homo sapiens, UniProt O43525+O43526)", 6.16),
    ("COC[C@@H]1CN(c2cc(C)c(C(=O)NCc3ccc(Cl)cc3)c(C3CC3)n2)CCO1", "KCNQ2/3 channels (Homo sapiens, UniProt O43525+O43526)", 6.50),
    ("CCSc1nc(N2CCC(C(=O)OC)CC2)cc(C)c1C(=O)NCc1cccc(F)c1", "KCNQ2/3 channels (Homo sapiens, UniProt O43525+O43526)", 5.96),
    ("CCSc1nc(N(C)c2ccccc2)cc(C)c1C(=O)NCc1cccc(F)c1", "KCNQ2/3 channels (Homo sapiens, UniProt O43525+O43526)", 6.56),
    ("CCSc1nc(N2CCOC[C@H]2C)cc(C)c1C(=O)NCc1ccc(Cl)cc1", "KCNQ2/3 channels (Homo sapiens, UniProt O43525+O43526)", 7.16),
    ("CCSc1nc(N2CCOCC2)cc(C)c1C(=O)NCCC1CCCCC1", "KCNQ2/3 channels (Homo sapiens, UniProt O43525+O43526)", 6.76),
    ("CCSc1nc(N2CCOCC2)cc(C)c1C(=O)NCCCC1(C)COC1", "KCNQ2/3 channels (Homo sapiens, UniProt O43525+O43526)", 5.16),
]

====

Biological target: KCNQ2/3 channels (Homo sapiens, UniProt O43525+O43526)
Construct: expressed in transfected cells
Experiment: Fluorescence assay using a voltage sensitive dye (fluorimetry)
Format: cell-based
Details: CHO-K1 cells expressing KCNQ2/3; IC50 where % efficacy is negative; read-out: Fluorimetry EC50/IC50
Class key for EC50 values: bucket 1 (below 100 nM), bucket 2 (100 nM to below 400 nM), bucket 3 (400 nM or more)

# compound, targetEntity, label
measured = [
    ("COCc1ccc(CNC(=O)c2c(C)cc(N3CCOCC3)nc2C2CC2)cc1F", "KCNQ2/3 channels (Homo sapiens, UniProt O43525+O43526)", "bucket 3"),
    ("Cc1cc(N2CCOCC2)nc(C(C)C)c1C(=O)NCc1ccc(F)cc1", "KCNQ2/3 channels (Homo sapiens, UniProt O43525+O43526)", "bucket 1"),
    ("CCSc1nc(N2CCOCC2)cc(C)c1C(=O)NCC1CCCCC1", "KCNQ2/3 channels (Homo sapiens, UniProt O43525+O43526)", "bucket 1"),
    ("CCSc1nc(N2C(C)COCC2C)cc(C)c1C(=O)NCc1cccc(F)c1 (stereo not drawn)", "KCNQ2/3 channels (Homo sapiens, UniProt O43525+O43526)", "bucket 2"),
    ("CCSc1nc(N(C)CCOC)cc(C)c1C(=O)NCc1cccc(F)c1", "KCNQ2/3 channels (Homo sapiens, UniProt O43525+O43526)", "bucket 3"),
    ("CCSc1nc(N2CCOCC2)cc(C)c1C(=O)NCCCC1CC1", "KCNQ2/3 channels (Homo sapiens, UniProt O43525+O43526)", "bucket 2"),
]

====

Entries annotated with measured pEC50
Target: KCNQ2/3 channels (Homo sapiens, UniProt O43525+O43526)
Construct: expressed in transfected cells
Test: Fluorescence assay using a voltage sensitive dye (fluorimetry)
Assay type: cell-based
Details: CHO-K1 cells expressing KCNQ2/3; IC50 where % efficacy is negative; read-out: Fluorimetry EC50/IC50
pEC50: −log10 of the molar value.
measure: pEC50

# compound, measure, measuredValue
measured = [
    ("CCSc1nc(N2CCOCC2)cc(C)c1C(=O)NCc1cc(C)cc(C)c1", "pEC50", 6.55),
    ("Cc1cc(N2CCOCC2)nc(N(C)C)c1C(=O)NCc1cc(F)cc(F)c1", "pEC50", 6.44),
    ("CCSc1nc(N2CC3CC2CO3)cc(C)c1C(=O)NCc1cccc(F)c1 (stereo not drawn)", "pEC50", 5.90),
    ("CCSc1nc(N2CCOC[C@H]2C)cc(C)c1C(=O)NCc1ccc(F)c(COC)c1", "pEC50", 6.54),
    ("CCN(C)c1nc(N2CCOCC2)cc(C)c1C(=O)NCc1ccc(F)cc1", "pEC50", 6.37),
    ("CCSc1nc(N(C)C2CCOC2)cc(C)c1C(=O)NCCCC(C)(C)C (stereo not drawn)", "pEC50", 6.57),
    ("CCOc1nc(N2CCOCC2)cc(C)c1C(=O)NCc1cc(F)cc(F)c1", "pEC50", 6.91),
    ("COc1nc(N2CCCOCC2)cc(C)c1C(=O)NCc1cccc(F)c1", "pEC50", 5.64),
    ("Cc1cc(N2CCOCC2)nc(OCC(F)F)c1C(=O)NCc1ccc(F)cc1", "pEC50", 7.11),
    ("CCSc1nc(N2CCOC[C@H]2C)cc(C)c1C(=O)NCCCC(F)(F)F", "pEC50", 6.71),
    ("COc1nc(N2CCOC[C@H]2C)cc(C)c1C(=O)NCc1ccc(F)c(F)c1", "pEC50", 6.89),
    ("CCCCCNC(=O)c1c(C)cc(N2CCOCC2)nc1SCC", "pEC50", 6.18),
    ("CCSc1nc(N2CCOCC2)cc(C)c1C(=O)NCc1ccc(OC(F)F)cc1", "pEC50", 6.36),
    ("CCSc1nc(N2CCOCC2)cc(C)c1C(=O)NCc1ccc2c(c1)OCO2", "pEC50", 5.94),
    ("CCC(C)c1nc(N2CCOCC2)cc(C)c1C(=O)NCCCC(C)(C)C (stereo not drawn)", "pEC50", 7.66),
    ("Cc1cc(N2CCOCC2)nc(SCC(C)C)c1C(=O)NCc1cccc(F)c1", "pEC50", 7.33),
    ("CCSc1nc(N2CCOCC2)cc(C)c1C(=O)NCc1ccc(F)c(OC)c1", "pEC50", 6.19),
    ("CCSc1nc(N2CCc3ccccc3C2)cc(C)c1C(=O)NCc1cccc(F)c1", "pEC50", 6.88),
]

====

Entries annotated with measured pEC50
Biological target: KCNQ2/3 channels (Homo sapiens, UniProt O43525+O43526)
Construct: expressed in transfected cells
Assay: Fluorescence assay using a voltage sensitive dye (fluorimetry)
Format: cell-based
Settings: CHO-K1 cells expressing KCNQ2/3; IC50 where % efficacy is negative; read-out: Fluorimetry EC50/IC50
pEC50: −log10 of the molar value.
measure: pEC50

# smilesInput, measure, measuredValue
data = [
    ("CCSc1nc(N2CCOCC2)cc(C)c1C(=O)NCc1ccccc1-c1ccccc1", "pEC50", 7.20),
    ("CCCc1nc(N2CCOCC2)cc(C)c1C(=O)NCc1ccc(Cl)cc1", "pEC50", 7.23),
    ("Cc1cc(N2CCOCC2)nc(C2CC2)c1C(=O)NCc1cccc(F)c1", "pEC50", 6.77),
    ("CCSc1nc(N2CCOCC2)cc(C)c1C(=O)NCc1ccc(F)c(C)c1", "pEC50", 6.87),
    ("Cc1cc(N2CCOCC2)nc(C2CC2)c1C(=O)NCCCC(F)(F)F", "pEC50", 6.12),
    ("CCSc1nc(N(C)CCOC)cc(C)c1C(=O)NCCCC(C)(C)C", "pEC50", 6.84),
    ("Cc1cc(N2CCOCC2)nc(C(C)C)c1C(=O)NCc1cccc(F)c1", "pEC50", 6.95),
    ("CCSc1nc(N2CCOCC2)cc(C)c1C(=O)NCc1cccc(C(F)(F)F)c1F", "pEC50", 7.41),
    ("COc1nc(N2CCOCC2)cc(C)c1C(=O)NCc1ccccc1-c1ccccc1", "pEC50", 6.60),
    ("CCSc1nc(N2CCN(CC(F)(F)F)CC2)cc(C)c1C(=O)NCc1cccc(F)c1", "pEC50", 5.80),
    ("CCSc1nc(N2CC(=O)C2)cc(C)c1C(=O)NCc1cccc(F)c1", "pEC50", 5.56),
    ("CCCCCCCNC(=O)c1c(C)cc(N2CCOCC2)nc1SCC", "pEC50", 6.63),
]
